Some molecules, each annotated with its measured pIC50.
- Test system: Trypanosoma brucei brucei
- procedure summary: GSK_TCAKS: pIC50 Trypanosoma brucei viability assay using fluorescence intensity. Assay plates (1536-well) were prepared by dispensing 25nL of compound solution per well using an Echo acoustic dispenser (Labcyte).
- Format: functional, organism-based
- protocol conditions: Lister 427, 2 h
pIC50: −log10 of the molar value.

{"columns": ["molecule", "study target", "pIC50"],
 "data": [
  ["CCOc1cc(NCCCN2CCN(C)CC2)c2ncccc2c1", "Trypanosoma brucei brucei", 4.90],
  ["Cc1c(C#N)c([N+](=O)[O-])nn1Cc1cccc(Cl)c1Cl", "Trypanosoma brucei brucei", 4.80],
  ["O=C1OCc2ccc(Nc3nccc(-c4cnn5ncccc45)n3)cc21", "Trypanosoma brucei brucei", 8.40],
  ["Oc1c(-c2nnc(CCc3ccccc3)[nH]2)ncc2cccnc12", "Trypanosoma brucei brucei", 6.10],
  ["CC(C(=O)Nc1ccccc1F)N(C)CC(=O)Nc1cccc2ccccc12 (stereo unspecified)", "Trypanosoma brucei brucei", 4.60],
  ["CNS(=O)(=O)c1ccccc1Nc1nc(Nc2ccnn2C)ncc1Cl", "Trypanosoma brucei brucei", 7.20]
]}

// data source = ChEMBL document CHEMBL3430912
